Molecular target: human NAMPT (Homo sapiens, UniProt P43490)
Sequence (P43490 whole entry): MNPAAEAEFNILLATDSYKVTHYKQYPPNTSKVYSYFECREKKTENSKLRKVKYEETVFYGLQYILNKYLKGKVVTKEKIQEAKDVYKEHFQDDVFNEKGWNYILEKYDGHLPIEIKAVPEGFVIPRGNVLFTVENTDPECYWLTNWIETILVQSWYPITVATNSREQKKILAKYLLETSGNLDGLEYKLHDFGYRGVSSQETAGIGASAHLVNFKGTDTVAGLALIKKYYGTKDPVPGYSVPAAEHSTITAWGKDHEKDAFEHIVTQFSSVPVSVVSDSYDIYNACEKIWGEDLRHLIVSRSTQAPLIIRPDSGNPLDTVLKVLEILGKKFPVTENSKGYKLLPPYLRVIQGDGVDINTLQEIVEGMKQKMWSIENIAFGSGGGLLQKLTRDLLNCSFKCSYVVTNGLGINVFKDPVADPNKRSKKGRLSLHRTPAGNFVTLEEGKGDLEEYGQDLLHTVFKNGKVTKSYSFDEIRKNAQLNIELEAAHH
Assay: Human recombinant enzyme assay (NMN fluorescence biochemical assay, activation of NAMPT)
Conditions: Table A; human recombinant NAMPT, NMN formation, 60 min; read-out: EC50 Human
pEC50: −log10 of the molar value.
Recorded metric: pEC50

[
  {
    "Compound": "Cc1ccc(C(=O)N2CC3(CC(NC(=O)NCc4ccc(C(N)=O)cc4)C3)C2)cn1",
    "pEC50": 4.29
  },
  {
    "Compound": "COc1ccc(CNC(=O)NC2CC3(C2)CC(C(=O)N2CCCC2c2ccncc2)C3)cc1 (stereo not shown)",
    "pEC50": 4.40
  }
]

(1) O=C(Cc1cccnc1)NCCCCCNC(=O)NCc1ccc(Cl)cc1
(2) Cc1cccc(C(=O)N2CC[C@]3(C2)C[C@@H](NC(=O)NCc2ccc(Cl)cc2)C3)c1
Prompt line: I'm curious, which of these has a smaller pEC50 number: 1 or 2 ? Write down the label of the entry you select.
Response line: 1
(1: 4.48, 2: 4.80)
